Values compiled from paper PMC4424056.

# assay_target: T1, integrin β3 cytoplasmic tail (β3 CT, K716-T762) (human, UniProt P05106 742-788)
# T1 chain (looked up): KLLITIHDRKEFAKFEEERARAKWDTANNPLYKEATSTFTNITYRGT
endpoint: Kd

* WKVGFFKRNRPPLEEDDEEGE (peptide, UniProt P08514 1019-1039, looked up) [integrin αIIb cytoplasmic tail (αIIb CT, W988-E1008)] | ~368 µM
